assay-info: Toxicity: median lethal dose (LD50)
measurement-setup: in vivo, ip; mouse, I.P.
observation-type: LD50 (mg/kg)
Give bare numbers, in mg/kg.

Req: Returns the measured LD50 for the input compound. Input: "COc1ccc(C(=O)Oc2ccc3cc(C(=N)N)ccc3c2)o1"
Resp: 200

* * *

Tested on: complement mediated hemolysis
assay-info: inhibition of complement mediated hemolysis
Assay type: cell-based
measurement-setup: 1 × 10^-7
Give yes when the value for Inhibition of complement mediated hemolysis is at least 90%. Give no when it is less.

compound	target-system	assigned-label
N=C(N)c1ccc2cc(OC(=O)c3ccc([N+](=O)[O-])o3)ccc2c1 [compound 65]	complement mediated hemolysis	no
N=C(N)c1ccc2cc(OC(=O)c3ccccn3)ccc2c1 [compound 45]	complement mediated hemolysis	no
N=C(N)c1ccc2cc(OC(=O)c3ccc4ccccc4n3)ccc2c1 [compound 52]	complement mediated hemolysis	yes
N=C(N)c1ccc2cc(OC(=O)c3ccc(COCc4ccccc4)o3)ccc2c1 [compound 7]	complement mediated hemolysis	yes
N=C(N)c1ccc2cc(OC(=O)c3ccco3)ccc2c1 [compound 3]	complement mediated hemolysis	yes

// next entry
Req: Reported Inhibition of complement mediated hemolysis reaches at least 90% for N=C(N)c1ccc2cc(OC(=O)C=Cc3ccco3)ccc2c1 [compound 14] ?
Resp: no

* * *

target-system: Thrombin (Homo sapiens)
assay-info: biochemical
measurement-setup: TAME hydrolysis; read-out: ID50 Thrombin
observation-type: pIC50
Numbers only, as −log10 of the molar value.

Field: pIC50. Fill in for each record below.
1. N=C(N)c1ccc2cc(OC(=O)c3ccc(CO)o3)ccc2c1
2. COc1ccc2c(c1)c(CC(=O)Oc1ccc3cc(C(=N)N)ccc3c1)c(C)n2C(=O)c1ccc(Cl)cc1
3. CC(=O)OCc1ccc(C(=O)Oc2ccc3cc(C(=N)N)ccc3c2)o1
4. N=C(N)c1ccc2cc(OC(=O)c3ccccn3)ccc2c1
5. N=C(N)c1ccc2cc(OC(=O)C=Cc3ccco3)ccc2c1
6. COc1ccc(C(=O)Oc2ccc3cc(C(=N)N)ccc3c2)o1
7. N=C(N)c1ccc2cc(OC(=O)c3cc4ccccc4o3)ccc2c1
8. N=C(N)c1ccc2cc(OC(=O)c3cccs3)ccc2c1

Resp:
1. 6.22
2. 7.05
3. 6.52
4. 5.40
5. 5.15
6. 6.70
7. 5.15
8. 6.70

Req: Query (compound): "COc1ccc2oc(C(=O)Oc3ccc4cc(C(=N)N)ccc4c3)cc2c1" ; field requested: pIC50
Resp: 5.70

* * *

Kindly state inhibition at 10 µM for each of the entries shown.
target-system: Thrombin (Homo sapiens)
assay-info: biochemical
measurement-setup: at 1×10^-5 M; figure in parentheses; read-out: percentage inhibition Thrombin
Numbers only, in %.

Here is how some compounds turned out for inhibition at 10 µM.
test-smiles	unit-name	inhibition at 10 µM
N=C(N)c1ccc2cc(OC(=O)c3ccc(Cn4ccnc4)cc3)ccc2c1	%	13
N=C(N)c1ccc2cc(OC(=O)C=Cc3cccnc3)ccc2c1	%	14
N=C(N)c1ccc2cc(OC(=O)C3CCN(C(=O)OCc4ccccc4)CC3)ccc2c1	%	41

Turning now to a further compound:
Req: Name the recorded inhibition at 10 µM for "N=C(N)c1ccc2cc(OC(=O)C=Cc3c[nH]c4ccccc34)ccc2c1" .
Resp: 11

* * *

System: complement mediated hemolysis
assay-info: inhibition of complement mediated hemolysis
Format: cell-based
measurement-setup: 1 × 10^-7
For each of the molecules below, state its Inhibition of complement mediated hemolysis.
Give bare numbers, in %.

Worked examples, 3 molecules total:
test-smiles	target-system	measured-number
N=C(N)c1ccc2cc(OC(=O)c3cccs3)ccc2c1	complement mediated hemolysis	34
N=C(N)c1ccc2cc(OC(=O)c3cc4ccccc4o3)ccc2c1	complement mediated hemolysis	98
CC(=O)OCc1ccc(C(=O)Oc2ccc3cc(C(=N)N)ccc3c2)o1	complement mediated hemolysis	77

Moving on to the next molecule.
Req: I have this molecule here, "COc1ccc(C(=O)Oc2ccc3cc(C(=N)N)ccc3c2)o1" , and I need its recorded Inhibition of complement mediated hemolysis.
Resp: 99

* * *

Provide the reported inhibition at 10 µM of each item.
target-system: Plasmin (Homo sapiens, UniProt P00747)
Sequence (P00747 581-810 limits assumed, species assumed): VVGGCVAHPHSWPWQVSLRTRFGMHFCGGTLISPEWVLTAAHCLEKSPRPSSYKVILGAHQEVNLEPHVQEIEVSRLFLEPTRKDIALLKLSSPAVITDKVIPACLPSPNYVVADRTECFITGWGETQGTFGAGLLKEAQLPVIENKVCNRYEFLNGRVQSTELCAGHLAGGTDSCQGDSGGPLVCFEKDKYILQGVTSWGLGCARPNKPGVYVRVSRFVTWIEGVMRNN
Sequence (P00747 97-580 limits assumed, species assumed): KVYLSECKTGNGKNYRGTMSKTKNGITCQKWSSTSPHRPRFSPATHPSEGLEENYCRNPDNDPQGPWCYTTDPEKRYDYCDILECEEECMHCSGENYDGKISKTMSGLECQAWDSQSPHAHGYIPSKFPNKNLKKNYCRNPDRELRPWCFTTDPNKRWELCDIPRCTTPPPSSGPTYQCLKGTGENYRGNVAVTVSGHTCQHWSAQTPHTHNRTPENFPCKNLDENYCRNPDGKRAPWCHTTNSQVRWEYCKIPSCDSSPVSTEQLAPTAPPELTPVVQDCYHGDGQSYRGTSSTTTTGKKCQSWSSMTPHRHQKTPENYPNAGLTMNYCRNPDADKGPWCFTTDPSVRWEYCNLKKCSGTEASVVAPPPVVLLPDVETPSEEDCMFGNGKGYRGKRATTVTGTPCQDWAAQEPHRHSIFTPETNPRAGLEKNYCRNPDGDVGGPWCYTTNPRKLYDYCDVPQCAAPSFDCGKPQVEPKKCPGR
assay-info: anti-plasmin activity (hydrolysis of TAME)
Assay type: biochemical
measurement-setup: at 1×10^-5 M; figure in parentheses; read-out: percentage inhibition Plasmin

test-smiles	inhibition at 10 µM
N=C(N)c1ccc2cc(OC(=O)c3ccc4[nH]cnc4c3)ccc2c1	31%
N=C(N)c1ccc2cc(OC(=O)c3ccc[nH]3)ccc2c1	< 10%
CN1c2ccccc2Sc2ccc(CC(=O)Oc3ccc4cc(C(=N)N)ccc4c3)cc21	31%

Req: Request - read-out inhibition at 10 µM | tested on Plasmin (Homo sapiens, UniProt P00747) | compound "N=C(N)c1ccc2cc(OC(=O)c3ccc([N+](=O)[O-])o3)ccc2c1"
Resp: < 10%

* * *

target-system: UniProt:P00734
assay-info: biochemical
measurement-setup: at 1×10^-5 M; figure in parentheses; read-out: percentage inhibition Thrombin
observation-type: inhibition at 10 µM (%)
Answers are plain numbers, in %.

test-smiles	inhibition at 10 µM, %
N=C(N)c1ccc2cc(OC(=O)c3ccc4[nH]cnc4c3)ccc2c1	46
COc1ccc2[nH]c(C(=O)Oc3ccc4cc(C(=N)N)ccc4c3)cc2c1	40

Req: What measured inhibition at 10 µM is associated with "N=C(N)c1ccc2cc(OC(=O)c3ccc([N+](=O)[O-])o3)ccc2c1" on UniProt:P00734?
Resp: 13

* * *

target-system: C1r (Homo sapiens, UniProt P00736)
Sequence (P00736 464-705 limits assumed): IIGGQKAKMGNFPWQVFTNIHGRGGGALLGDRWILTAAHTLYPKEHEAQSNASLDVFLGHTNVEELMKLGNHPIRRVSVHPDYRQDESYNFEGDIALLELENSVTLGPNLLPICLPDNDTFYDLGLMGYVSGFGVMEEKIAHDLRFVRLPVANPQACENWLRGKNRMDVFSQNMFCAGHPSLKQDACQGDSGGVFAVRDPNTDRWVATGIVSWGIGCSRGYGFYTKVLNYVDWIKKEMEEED
Sequence (P00736 18-463 limits assumed): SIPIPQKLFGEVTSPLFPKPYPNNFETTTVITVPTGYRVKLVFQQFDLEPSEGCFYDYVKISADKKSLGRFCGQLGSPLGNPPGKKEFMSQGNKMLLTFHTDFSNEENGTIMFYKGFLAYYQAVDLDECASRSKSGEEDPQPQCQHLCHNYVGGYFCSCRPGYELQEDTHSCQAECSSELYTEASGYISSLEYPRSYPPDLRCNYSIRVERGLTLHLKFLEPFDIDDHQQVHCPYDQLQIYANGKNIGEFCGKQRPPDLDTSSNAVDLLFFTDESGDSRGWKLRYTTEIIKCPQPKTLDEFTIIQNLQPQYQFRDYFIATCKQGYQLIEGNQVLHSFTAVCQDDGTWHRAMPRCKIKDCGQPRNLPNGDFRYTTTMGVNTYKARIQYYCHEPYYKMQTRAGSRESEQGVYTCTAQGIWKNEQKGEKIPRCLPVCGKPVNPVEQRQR
assay-info: anti-C1 esterase (C1r) activity (hydrolysis of AAME)
Assay type: biochemical
measurement-setup: at 1×10^-5 M; figure in parentheses; read-out: percent inhibition C1r
observation-type: inhibition at 10 µM

# example entries with known answers
compound	result
N=C(N)c1ccc2cc(OC(=O)C3CCNCC3)ccc2c1 [compound 64]	45%
N=C(N)c1ccc2cc(OC(=O)C=Cc3c[nH]c4ccccc34)ccc2c1 [compound 38]	42%
N=C(N)c1ccc2cc(OC(=O)c3ccc([N+](=O)[O-])o3)ccc2c1 [compound 65]	30%
N=C(N)c1ccc2cc(OC(=O)c3ccccn3)ccc2c1 [compound 45]	18%
N=C(N)c1ccc2cc(OC(=O)c3ccc4ccccc4n3)ccc2c1 [compound 52]	29%

Now consider the entry below.
Req: So what's the measured inhibition at 10 µM for this one? N=C(N)c1ccc2cc(OC(=O)c3ccc[nH]3)ccc2c1 [compound 28]
Resp: 31%

* * *

target-system: C1s (Homo sapiens)
Sequence (P09871 438-688 limits assumed): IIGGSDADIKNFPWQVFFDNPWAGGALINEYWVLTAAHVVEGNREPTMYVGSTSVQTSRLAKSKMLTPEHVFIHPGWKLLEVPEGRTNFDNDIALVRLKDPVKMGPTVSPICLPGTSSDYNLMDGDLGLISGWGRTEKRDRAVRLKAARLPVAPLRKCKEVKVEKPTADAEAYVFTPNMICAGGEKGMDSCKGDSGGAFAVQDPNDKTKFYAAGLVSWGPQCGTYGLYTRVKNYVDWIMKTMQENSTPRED
Sequence (P09871 16-437 limits assumed): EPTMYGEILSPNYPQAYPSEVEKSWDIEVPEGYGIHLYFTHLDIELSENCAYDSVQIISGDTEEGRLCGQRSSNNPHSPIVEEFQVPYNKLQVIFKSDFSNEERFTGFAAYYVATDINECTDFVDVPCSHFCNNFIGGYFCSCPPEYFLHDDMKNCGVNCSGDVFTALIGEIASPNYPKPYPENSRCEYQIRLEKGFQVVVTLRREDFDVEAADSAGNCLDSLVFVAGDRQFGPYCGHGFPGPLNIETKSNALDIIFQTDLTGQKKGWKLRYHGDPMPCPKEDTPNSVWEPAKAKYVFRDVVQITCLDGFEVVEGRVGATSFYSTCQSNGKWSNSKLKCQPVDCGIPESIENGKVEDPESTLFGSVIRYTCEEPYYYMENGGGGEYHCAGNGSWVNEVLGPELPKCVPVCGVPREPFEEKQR
observation-type: pIC50
One number for each entry, as −log10 of the molar value.

compound	target-system	measured-number
CSCc1ccc(C(=O)Oc2ccc3cc(C(=N)N)ccc3c2)o1 [compound 11]	C1s (Homo sapiens)	6.05
N=C(N)c1ccc2cc(OC(=O)C=Cc3ccco3)ccc2c1 [compound 14]	C1s (Homo sapiens)	6.40
N=C(N)c1ccc2cc(OC(=O)c3ccc4[nH]cnc4c3)ccc2c1 [compound 43]	C1s (Homo sapiens)	6.30
COc1ccc2oc(C(=O)Oc3ccc4cc(C(=N)N)ccc4c3)cc2c1 [compound 17]	C1s (Homo sapiens)	5.22

Here is the next item to consider.
Req: // lookup pIC50 for COc1ccc2c(c1)c(CC(=O)Oc1ccc3cc(C(=N)N)ccc3c1)c(C)n2C(=O)c1ccc(Cl)cc1 [compound 35]
Resp: 6.10

* * *

Test system: complement mediated hemolysis
assay-info: inhibition of complement mediated hemolysis
Type: cell-based
measurement-setup: 1 × 10^-4
Give measured Inhibition of complement mediated hemolysis for each item. Keep answers brief.
Answer with the value and then the unit.

# annotated cases, reported Inhibition of complement mediated hemolysis shown
test-smiles	result
N=C(N)Nc1ccc(CCc2ccc(C(=O)Oc3ccc4cc(C(=N)N)ccc4c3)o2)cc1	100%
N=C(N)c1ccc2cc(OC(=O)c3cc4ccccc4o3)ccc2c1	100%
N=C(N)c1ccc2cc(OC(=O)c3ccc([N+](=O)[O-])o3)ccc2c1	100%
N=C(N)c1ccc2cc(OC(=O)C=Cc3ccco3)ccc2c1	98%

Now let's try a different one.
Req: Which Inhibition of complement mediated hemolysis reading was recorded for the compound "N=C(N)c1ccc2cc(OC(=O)c3ccc(CO)o3)ccc2c1" ?
Resp: 100%
